# Target or test system: MERS-CoV 3CLpro (Middle East respiratory syndrome-related coronavirus)
# Sequence (K9N7C7 3248-3553): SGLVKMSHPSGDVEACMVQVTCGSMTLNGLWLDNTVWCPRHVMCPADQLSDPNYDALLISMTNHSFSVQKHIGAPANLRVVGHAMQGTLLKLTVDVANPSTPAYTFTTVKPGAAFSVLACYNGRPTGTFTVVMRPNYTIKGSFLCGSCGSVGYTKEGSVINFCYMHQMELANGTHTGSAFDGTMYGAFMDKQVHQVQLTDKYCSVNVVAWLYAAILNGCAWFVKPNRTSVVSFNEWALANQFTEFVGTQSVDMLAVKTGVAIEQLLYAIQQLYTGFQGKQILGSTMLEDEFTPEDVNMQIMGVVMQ
# Test description: biochemical
Property: IC50; scope: individual compounds

{"Smiles code": "CC(C)(C)[C@H](NC(=O)C(F)(F)F)C(=O)N1C[C@H]2[C@@H]([C@H]1C(=O)NN(C[C@@H]1CCNC1=O)C(=O)[C@H](F)Cl)C2(C)C", "IC50": "115 nM"}
{"Smiles code": "CC(C)(C)[C@H](NC(=O)[C@@H]1CC1(F)F)C(=O)N1C[C@H](C(F)(F)F)C[C@H]1C(=O)NN(C[C@@H]1CCNC1=O)C(=O)[C@H](F)Cl", "IC50": "80 nM"}
{"Smiles code": "CC(C)(C)[C@H](Nc1cc(F)ncn1)C(=O)N1C[C@@H]2CCC[C@@H]2[C@H]1C(=O)NN(C[C@@H]1CCNC1=O)C(=O)[C@H](F)Cl", "IC50": "89 nM"}
{"Smiles code": "CC[C@@H](C)[C@H](NC(=O)C(F)F)C(=O)N1C[C@H]2[C@@H]([C@H]1C(=O)NN(C[C@@H]1CCNC1=O)C(=O)[C@H](F)Cl)C2(C)C", "IC50": "71 nM"}
{"Smiles code": "CC[C@H](C)[C@H](NC(=O)[C@@H](F)Cl)C(=O)N1C[C@@H]2CCC[C@@H]2[C@H]1C(=O)NN(C[C@H]1CCCNC1=O)C(=O)[C@@H](F)Cl", "IC50": "110 nM"}

###

# Target or test system: MERS-CoV 3CLpro (Middle East respiratory syndrome-related coronavirus)
# Test description: biochemical
With a cut-off of 100 nM, any IC50 strictly below it is called true; any IC50 meeting it or above is called false.

{"Molecule": "CC[C@H](C)[C@H](NC(=O)C(C)C)C(=O)N1C[C@H]2[C@@H]([C@H]1C(=O)NN(C[C@@H]1CCNC1=O)C(=O)[C@@H](F)Cl)C2(C)C", "Label": "true"}
{"Molecule": "CC(C)(C)[C@H](NC(=O)C(F)(F)F)C(=O)N1C[C@H]2[C@@H]([C@H]1C(=O)NN(C[C@@H]1CCNC1=O)C(=O)[C@@H](F)Cl)C2(C)C", "Label": "true"}
{"Molecule": "CC[C@@H](C)[C@H](NC(=O)C1(F)CC1)C(=O)N1C[C@H]2[C@@H]([C@H]1C(=O)NN(C[C@@H]1CCNC1=O)C(=O)[C@@H](F)Cl)C2(C)C", "Label": "false"}
{"Molecule": "CC(C)(C)[C@H](NC(=O)C1CC1(F)F)C(=O)N1C[C@@H]2CCC[C@@H]2[C@H]1C(=O)NN(C[C@@H]1CCNC1=O)C(=O)[C@H](F)Cl (mixture of isomers)", "Label": "true"}
{"Molecule": "CC(C)(C)[C@H](NC(=O)C1CC1)C(=O)N1C[C@H]2[C@@H]([C@H]1C(=O)NN(C[C@@H]1CCNC1=O)C(=O)[C@H](F)Cl)C2(C)C", "Label": "false"}
{"Molecule": "CCC(CC)[C@H](NC(=O)C(F)(F)F)C(=O)N1C[C@H]2[C@@H]([C@H]1C(=O)NN(C[C@@H]1CCNC1=O)C(=O)[C@H](F)Cl)C2(C)C", "Label": "true"}
{"Molecule": "CC[C@H](C)[C@H](NC(=O)C1CC1)C(=O)N1C[C@@H]2CCC[C@@H]2[C@H]1C(=O)NN(C[C@@H]1CCNC1=O)C(=O)[C@H](F)Cl", "Label": "true"}
{"Molecule": "CC[C@H](C)[C@H](NC(=O)C(Cl)Cl)C(=O)N1C[C@@H]2CCC[C@@H]2[C@H]1C(=O)NN(C[C@@H]1CCNC1=O)C(=O)[C@H](F)Cl", "Label": "true"}
